Entry source: patent US11891397B1

# Tested on: MIAPaCa-2 (pancreas)
# testMethodNotes: In vitro cytotoxic activity MTT assay, MIAPaCa-2
# Format: cell-based
# experimentalContext: Homo sapiens, MIA PaCa-2, 96 hours exposure, read-out: IC50, 50% inhibition of cell proliferation

- structureSmilesString: "O=c1[nH]ccc2c1[nH]c1c3ccncc3nc(Nc3cccc(Cl)c3)c21"
  IC50 (nM): 1200
